- target.of.assay: human GLP-1 receptor (human, UniProt P43220 24-463)
- test.name: cell-based or functional assay
endpoint: EC50 hGLP-1 R [pM] (pM)
I only need the number, in pM, no unit after it.

Some solved entries appear below for comparison.
binder	endpoint	reported.value
XSQGTFTSDISKQXESRRAQEFIEWLLATGPESGAPPPSX (Tza at 1; Nle at 14; Cys(VS-DO3A(Ga)) at 40; C-terminal amide) [SEQ ID NO: 36]	EC50 hGLP-1 R [pM]	65300
XSQGTFTSDYSKQLESRRAQEFIEWLLAGGPESGAPPPSX (Tza at 1; Cys(VS-DO3A(Ga)) at 40; C-terminal amide) [SEQ ID NO: 8]	EC50 hGLP-1 R [pM]	4130
XSQGTFTSDYSKQLESRRAQEFIEWLLAGGPESGAPPPSX (Tza at 1; Cys(mal-DOTA(Ga)) at 40; C-terminal amide) [SEQ ID NO: 7]	EC50 hGLP-1 R [pM]	7530
XSQGTFTSDYSKQLESRRAQEFIEWLLAGGPESGAPPPSX (Tza at 1; Cys(VS-DO3A(Ga)) at 40; C-terminal -OH) [SEQ ID NO: 80]	EC50 hGLP-1 R [pM]	5130
XSQGTFTSDYSKQLESRRAQEFIEWLLAGGPESGAPPPSX (Tza at 1; Cys(mal-NOTA(Ga)) at 40; C-terminal amide) [SEQ ID NO: 9]	EC50 hGLP-1 R [pM]	4200
XSQGTFXSDLSKQXESRRAQDFIEWLLATGPESGAPPPSX (Tza at 1; Aib at 7; Nle at 14; Cys(mal-NOTA) at 40; C-terminal amide) [SEQ ID NO: 16]	EC50 hGLP-1 R [pM]	1e+07

*Q* Given the binder XSQGTFTSDTSKQLESRRAQEFIEWLLATGPESGAPPPSX (Tza at 1; Cys(VS-DO3A(Ga)) at 40; C-terminal amide) [SEQ ID NO: 48] , what is its reported EC50 hGLP-1 R [pM]?
*A* 297000

*Q* Query XSQGTFXSDLSKQXESRRAKDFIEWLLATGPESGAPPPSX (Tza at 1; Aib at 7; Nle at 14; Cys(VS-DO3A) at 40; C-terminal amide) [SEQ ID NO: 51] next
*A* 1e+07

*Q* Query XSQGTFXSDLAKQXESRRAQDFIEWLLATGPESGAPPPSX (Tza at 1; Aib at 7; Nle at 14; Cys(VS-DO3A) at 40; C-terminal amide) [SEQ ID NO: 31] next
*A* 1e+07

*Q* Query XSQGTFXSDLSKQXESRRAQDFIEWLLATGPESGAPPPSX (Tza at 1; Aib at 7; Nle at 14; Cys(mal-NODAGA) at 40; C-terminal amide) [SEQ ID NO: 17] next
*A* 1e+07

*Q* Query XSQGTFTSDXSKQXESRRAQEFIEWLLXGGPESGAPPPSX (Tza at 1; Tle at 10; Nle at 14; Bal at 28; Cys(VS-DO3A(Ga)) at 40; C-terminal amide) [SEQ ID NO: 12] next
*A* 12900
